# Tested on: barnyardgrass
# ASSAY REMARKS: Preemergent control of plant species
# Assay type: in vivo, Echinochloa crusgalli
# TEST CONTEXT: Echinochloa crus-galli, pre-emergence, 336 h; 0.25 lb/acre; read-out: percent preemergent control
VALUE KIND: pest or weed control at 280.212 g/ha

CC(C)c1ccn2nc(S(=O)(=O)Nc3c(Cl)cccc3Cl)nc2n1 [Compound 204]; 0%
CCOC(=O)N(c1c(Cl)cccc1Cl)S(=O)(=O)c1nc2nc(C)ccn2n1 [Compound 272]; 60%
Cc1cc(C)n2nc(S(=O)(=O)Nc3ccccc3F)nc2n1 [Compound 8]; 75%
Cc1cc(C)n2nc(S(=O)(=O)Nc3ccccc3C(N)=O)nc2n1 [Compound 37]; 97%
COc1cccc(C(F)(F)F)c1NS(=O)(=O)c1nc2nccc(C)n2n1 [Compound 191]; 100%

* * *

Recorded plant injury at 500 ppm for the following compounds
# Tested on: corn
# ASSAY REMARKS: Postemergent control of plant species
# Format: in vivo, Zea mays
# TEST CONTEXT: Zea mays, post-emergence, 336 h, read-out: percent postemergent control
VALUE KIND: plant injury at 500 ppm (%)

Cc1cccc(Cl)c1NS(=O)(=O)c1nc2ncc(Cl)cn2n1; 30
Cc1cc(C)n2nc(S(=O)(=O)Nc3c(C)cccc3C)nc2n1; 0
CCOC(=O)CN(c1c(C)cccc1C(=O)OC)S(=O)(=O)c1nc2nc(C)cc(C)n2n1; 0
COC(=O)c1nn(C)c(C)c1NS(=O)(=O)c1nc2nc(C)cc(C)n2n1; 0
Cc1cc(C)n2nc(S(=O)(=O)Nc3cccc(Cl)c3)nc2n1; 20
COC(=O)c1cccc(C)c1N(C)S(=O)(=O)c1nc2nc(C)cc(C)n2n1; 0
Cc1cc(C)n2nc(S(=O)(=O)Nc3c(Cl)ccc4ccccc34)nc2n1; 75
Cc1cc(C)n2nc(S(=O)(=O)Nc3ccccc3F)nc2n1; 20
Cc1ccn2nc(S(=O)(=O)Nc3c(C)nn(C)c3C(F)(F)F)nc2n1; 0
CCc1cccc(CC)c1NS(=O)(=O)c1nc2nc(C)cc(C)n2n1; 25
Cc1cc(C)n2nc(S(=O)(=O)Nc3c(F)c(F)cc(F)c3F)nc2n1; 0
COC(=O)c1cccc(F)c1NS(=O)(=O)c1nc2nc(C)cc(C)n2n1; 80
Cc1cc(C)n2nc(S(=O)(=O)Nc3c(C)nn(C)c3C(F)(F)F)nc2n1; 0
CSc1cccc(Cl)c1NS(=O)(=O)c1nc2nc(C)cc(C)n2n1; 90
COc1ccc(Cl)c(NS(=O)(=O)c2nc3nc(C)ccn3n2)c1Cl; 25
Cc1cc(C)n2nc(S(=O)(=O)N(Cc3ccccc3)c3c(Cl)cccc3Cl)nc2n1; 0
Cc1cc(C)n2nc(S(=O)(=O)Nc3c(Cl)cc(Cl)cc3Cl)nc2n1; 0
Cc1cc(C)n2nc(S(=O)(=O)Nc3ccccc3[N+](=O)[O-])nc2n1; 10

* * *

# Tested on: sprangletop
# ASSAY REMARKS: Control of aquatic plant species (paddy water)
# Format: in vivo, Leptochloa filiformis
# TEST CONTEXT: Leptochloa filiformis, 216 h; 0.5 Kg/Ha, nine days; read-out: Percent control
VALUE KIND: pest or weed control at 500 g/ha (%)

Cc1cc(C)n2nc(S(=O)(=O)Nc3c(Cl)cccc3I)nc2n1 [Compound 53]; 97
Cc1cc(C)n2nc(S(=O)(=O)Nc3c(C)cccc3[N+](=O)[O-])nc2n1 [Compound 49]; 97
Cc1cc(C)n2nc(S(=O)(=O)Nc3c(F)cccc3Cl)nc2n1 [Compound 54]; 0
Cc1ccn2nc(S(=O)(=O)Nc3c(Cl)cccc3Cl)nc2n1 [Compound 143]; 97
Cc1cc(C)n2nc(S(=O)(=O)Nc3c(C)cccc3C)nc2n1 [Compound 32]; 95
